Listed next: entries and their corresponding log10 TGI.
Test system: NCI-H522 lung
assay-name: NCI tumour cell line growth inhibition, 48 h
# log10 transformed; quantity=TGI; unit=µM

Asked: Tell me log10 TGI reported for O=NNc1ccc(Sc2ccc3ccccc3c2)cn1
Given back: 1.73

Asked: Tell me log10 TGI reported for c1ccc(CNCCCNCCCCNCCCNCc2ccccc2)cc1
Given back: 0.53

Asked: Tell me log10 TGI reported for NS(=O)(=O)c1ccc(N=Nc2ccc(O)c(O)c2)cc1
Given back: 0.49

Asked: Tell me log10 TGI reported for COc1ccc2[nH]c3c(C)c4ccnc(NCCCN(C)CCCN)c4c(C)c3c2c1
Given back: -0.86

Asked: Tell me log10 TGI reported for CCOP(=O)(CCN1CCN(CCCCCOc2cc3c(cc2OC)C(=O)N2CCC[C@H]2C=N3)CC1)OCC
Given back: 0.89

Asked: Tell me log10 TGI reported for O=[N+]([O-])c1ccc(/C=N/n2c(CCc3n[nH]c(=S)n3/N=C/c3ccc([N+](=O)[O-])o3)n[nH]c2=S)o1
Given back: 1.67
